meta.source: the array DNA melting data of Ke et al. (doi:10.1101/2024.01.08.574731)

Assay: melting temperature; fluorescence melt of hairpins on a sequencing array, two-state fit, raised by 9.35 °C to match UV melts
Settings: sodium 0.088 M
experimental_endpoint: Tm (°C)

sequence_string: GATCATACTAATGATC ((((((....))))))
experimental_endpoint: Tm
recorded_value: 46.8

sequence_string: GCCTGGCGAAAGCTGGGC (((..((....))..)))
experimental_endpoint: Tm
recorded_value: 64.4

sequence_string: GGATACGAAAGTATATCC ((((((....)))..)))
experimental_endpoint: Tm
recorded_value: 34.5

sequence_string: GTGGCTCCGAAAGGACAC (((..(((....))))))
experimental_endpoint: Tm
recorded_value: 47.8

sequence_string: GGTGCCGAAAGGCTTACC ((((((....)))..)))
experimental_endpoint: Tm
recorded_value: 44.1

sequence_string: GTCGGCGAAAGCCGGAC ((((((....))).)))
experimental_endpoint: Tm
recorded_value: 61.1

sequence_string: GCTATTGGAAACAATGGC ((.((((....)))).))
experimental_endpoint: Tm
recorded_value: 45.7

sequence_string: GGGGTTCGAAAGAATCCC (((.(((....))).)))
experimental_endpoint: Tm
recorded_value: 58.6

sequence_string: GTATCACGAAAGTGTAC (((.(((....))))))
experimental_endpoint: Tm
recorded_value: 42.6

sequence_string: GTGGTCGAAAGACACAC ((((((....))).)))
experimental_endpoint: Tm
recorded_value: 50.3

sequence_string: GATGCAGGAAACTGTGTC ((..(((....)))..))
experimental_endpoint: Tm
recorded_value: 35.5

sequence_string: GAGGGCCGAAAGGCTCTC (((.(((....))).)))
experimental_endpoint: Tm
recorded_value: 67

sequence_string: GCAGGTGGAAACACTTGC (((.(((....))).)))
experimental_endpoint: Tm
recorded_value: 51.5

sequence_string: GATCCGGTCGCGGATC ((((((....))))))
experimental_endpoint: Tm
recorded_value: 60.2

sequence_string: GATCTAGCATAGATC ((((((...))))))
experimental_endpoint: Tm
recorded_value: 50.8

sequence_string: GCCGGCGAAAGCCAAGGC ((((((....)))..)))
experimental_endpoint: Tm
recorded_value: 65.3

sequence_string: GTGTATGGAAACATGCAC (((.(((....))).)))
experimental_endpoint: Tm
recorded_value: 48.9

sequence_string: GCAACCGAAAGGTTTTGC ((((((....)))..)))
experimental_endpoint: Tm
recorded_value: 39.9

sequence_string: GCATCCTCGAAAGAGTGC (((..(((....))))))
experimental_endpoint: Tm
recorded_value: 33.1

sequence_string: GTGGGAGGAAACTCCTAC ((.((((....)))).))
experimental_endpoint: Tm
recorded_value: 46.8

sequence_string: GAGGCGGGAAACCGTCTC (((.(((....))).)))
experimental_endpoint: Tm
recorded_value: 56.8

sequence_string: GATCCATGGGTGGATC ((((((....))))))
experimental_endpoint: Tm
recorded_value: 54.4

sequence_string: GATCGCCCCAGCGATC ((((((....))))))
experimental_endpoint: Tm
recorded_value: 68.5

sequence_string: CGAACTCGGAAACGATCG (((..(((....))))))
experimental_endpoint: Tm
recorded_value: 22.9

sequence_string: GCGCACGGAAACATGCGC (((((.(....).)))))
experimental_endpoint: Tm
recorded_value: 59

sequence_string: GTATTCGAAAGAAATAC ((((((....))).)))
experimental_endpoint: Tm
recorded_value: 34

sequence_string: GGGTTAACGAAAGTTCCC (((..(((....))))))
experimental_endpoint: Tm
recorded_value: 37.4

sequence_string: GCCCAACGAAAGTTTGGC (((.(((....))).)))
experimental_endpoint: Tm
recorded_value: 50.2

sequence_string: GCCATACGAAAGTAAGGC (((.(((....))).)))
experimental_endpoint: Tm
recorded_value: 52.6

sequence_string: GGGGATGCGAAAGCACCC (((..(((....))))))
experimental_endpoint: Tm
recorded_value: 56.2

sequence_string: GATGTAGGAAACCACATC (((((.(....).)))))
experimental_endpoint: Tm
recorded_value: 37.6

sequence_string: GCCCGTCGAAAGACGGC (((.(((....))))))
experimental_endpoint: Tm
recorded_value: 63.6

sequence_string: GATCCCACACGGGATC ((((((....))))))
experimental_endpoint: Tm
recorded_value: 63.1

sequence_string: GGCATAGGAAACCATGCC (((((.(....).)))))
experimental_endpoint: Tm
recorded_value: 48.7

sequence_string: GCCTTTGGAAACGAAGGC (((((.(....).)))))
experimental_endpoint: Tm
recorded_value: 51.6

sequence_string: GGGTTAGGAAACTGACTC (.((.((....)).)).)
experimental_endpoint: Tm
recorded_value: 27.7

sequence_string: GAAACGGGAAACCATTTC ((((.((....)).))))
experimental_endpoint: Tm
recorded_value: 28.8

sequence_string: GGGAGCGAAAGCTTGCCC ((((((....)))..)))
experimental_endpoint: Tm
recorded_value: 39.4

sequence_string: GTTATACGAAAGTAGAAC (((.(((....))).)))
experimental_endpoint: Tm
recorded_value: 45.1

sequence_string: GTATCAGAAATGATAC ((((((....))))))
experimental_endpoint: Tm
recorded_value: 45.6

sequence_string: GATCGCTGCGGCGATC ((((((....))))))
experimental_endpoint: Tm
recorded_value: 68.9

sequence_string: GATCCGAGCGCGGATC ((((((....))))))
experimental_endpoint: Tm
recorded_value: 58.8

sequence_string: GATCGAGAGTTCGATC ((((((....))))))
experimental_endpoint: Tm
recorded_value: 50.5

sequence_string: GATCTAATTTAGATC ((((((...))))))
experimental_endpoint: Tm
recorded_value: 41.4

sequence_string: GGACCAGGAAACTGACCC ((..(((....)))..))
experimental_endpoint: Tm
recorded_value: 23.5

sequence_string: GATCCGGTTTCGGATC ((((((....))))))
experimental_endpoint: Tm
recorded_value: 59.5

sequence_string: GTCGTGTCGAAAGACGAC (((..(((....))))))
experimental_endpoint: Tm
recorded_value: 48.9

sequence_string: GATCAATGCATTGATC ((((((....))))))
experimental_endpoint: Tm
recorded_value: 52.3

sequence_string: GGGAGTACGAAAGTACCC (((..(((....))))))
experimental_endpoint: Tm
recorded_value: 51.3

sequence_string: GGGCTTCGAAAGAACCC (((.(((....))))))
experimental_endpoint: Tm
recorded_value: 48.6
